Taken from PubChem BioAssay.

Examples of compounds with documented composite z-score follow.
Tested on: Noggin (protein binding on small-molecule microarray)
Assay: Noggin binders on small-molecule microarray, primary screen, biochemical, 635/667 nm fluorescence (AID 1095);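 note: score merges 667 nm feature fluorescence with signal to noise over triplicate slides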
Conditions: 635 nm fluorescence, higher = more signal
value-type: composite z-score

1. CS(=O)(=O)CCOC(=O)C1=CC(CCCO)=CC(C2CC2)N(Cc2cccc(OC(F)(F)F)c2)C=C1C(=O)OCCS(C)(=O)=O (stereo unspecified) :: -0.0678
2. CN(C)CCCC[C@@H]1NC(=O)[C@@H]2C[C@H](C(=O)O)[C@H](c3cccc(OCCO)c3)N2C1=O :: -0.0355
3. COCC1C2CC[C@H]3C(OCc4ccc(OC)cc4)OC[C@]4(C)[C@H]3C2=C(CN4C(=O)OC(C)(C)C)[C@H](C)C1COC (stereo partly specified) :: 0.372
4. COCCOC(=O)N1C(=O)[C@@]2(c3cc(C#CCNC(N)=O)ccc31)[C@H](c1ccc(O)cc1)N1[C@H](c3ccccc3)[C@H](c3ccccc3)OC(=O)[C@H]1[C@@H]2C(N)=O :: -1.99
5. COCCCNC(=O)[C@@]1(c2ccc([N+](=O)[O-])cc2)CC(=O)N(CC23CC4CC(CC(C4)C2)C3)[C@@H]1c1ccc(CO)cc1I :: 0.26
6. COCCOC(=O)N1C(=O)[C@@]2(c3cc(C#CC4=CCCCC4)ccc31)[C@H](c1ccc(O)cc1)N1[C@H](c3ccccc3)[C@H](c3ccccc3)OC(=O)[C@H]1[C@@H]2C(=O)NC[C@H](O)c1ccccc1 :: 0.782

---

Assay: small-molecule microarray binders of probe aShh, primary screen, biochemical, biotinylated probe, 635/667 nm fluorescence (AID 1114);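 note: probe is biotin-labelled aShh protein from a stem cell growth factor screen; measures binding of labelled protein to compounds printed on the slide; score merges feature fluorescence at 667 nm with signal-to-noise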
Conditions: higher = more signal
Quick rule for you: composite z-score at -0.04 or higher means 1, lower means 0.

1) CN(C)CCCCNC(=O)[C@H]1C[C@H]2C(=O)N[C@@H](CCCC[N+](C)(C)C)C(=O)N2[C@H]1c1ccc(O)cc1 :: 0
2) O=C1O[C@H](c2ccccc2)[C@H](c2ccccc2)N2[C@H]1[C@@H](C(=O)Nc1nc3ccccc3s1)[C@]1(C(=O)Nc3ccc(C#CC4=CCCCC4)cc31)[C@H]2c1ccc(O)cc1 :: 1
3) COc1ccc([Si](C)(C)[C@@H]2[C@@H](CCn3cc([C@H](O)c4ccccc4)nn3)O[C@]3(C(=O)N(Cc4cccc(N5C(=O)c6cccc7cccc5c67)c4)c4ccccc43)[C@H]2C)cc1 :: 0
4) C=C(/C(=C/C[C@@H](OC(=O)c1ccncc1)c1cccc(OCCO)c1)c1cnc2ccccc2c1)C(C)C :: 0
5) COc1ccc([Si](C)(C)[C@@H]2[C@@H](CC(=O)N3Cc4ccccc4C[C@H]3CO)O[C@]3(C(=O)N(c4ccccc4)c4ccccc43)[C@H]2C)cc1 :: 1
6) C=C(/C(=C/C[C@@H](OC(C)=O)c1ccc(OCCO)cc1)c1cc(C(=O)OC)ccc1OC)C(C)C :: 0
7) CC(C)C[C@@H]1NC(=O)[C@H]2C[C@@H](C(=O)NCCCCCN)[C@@H](c3cccc(OCCO)c3)N2C1=O :: 0
8) CN1C(=O)C2C=CC(C(O)c3ccc(I)cc3)N(Nc3ccccc3)C2C1=O (stereo not drawn) :: 1
9) O=c1cccc(-c2ccco2)o1 :: 1
10) CCCNC(=O)[C@@]1(C)c2ccccc2C(=O)N(Cc2ccccc2)[C@H]1c1ccc(CO)cc1 :: 0
11) COC(=O)c1c2oc(c1C(=O)OC)C(=O)N1CCC[C@H]1Cn1nncc1CN(Cc1ccccc1)C(=O)N[C@H](CO)CC2 :: 0
12) COc1ccc([Si](C)(C)[C@@H]2[C@@H](CCn3cc([C@H](O)c4ccccc4)nn3)O[C@]3(C(=O)N(c4ccccc4)c4ccccc43)[C@H]2C)cc1 :: 1
13) CO[C@H]1O[C@H](CO)[C@@H](OC(=O)Nc2ccc(C#N)cc2)[C@@H]2OC(=O)[C@H](Cc3cccc(Br)c3)C/C=C/C[C@@H](Cc3cccc(Br)c3)C(=O)O[C@@H]12 :: 1
14) COC(=O)[C@@]1(Cc2ccc(F)cc2)[C@H]2c3cc(C(=O)N4CCCC4)n(C)c3C[C@H]2CN1C(=O)c1ccccc1 :: 1
15) [N-]=[N+]=NCc1ccccc1C[C@@]1(C(=O)N2CCCCC2)N=C(c2ccc(OCCCO)cc2)O[C@@H]1c1ccccc1CN=[N+]=[N-] :: 0
16) C[C@@H]1ON(c2ccc(I)cc2)[C@H](c2ccc(OC(=O)OC(C)(C)C)cc2)[C@H]1C(=O)N1C(=O)OC[C@H]1Cc1ccccc1 :: 0
17) COC(=O)C1N=C(c2ccc(OCCCO)cc2)N(c2ccccc2)O1 (stereo not drawn) :: 0
18) CC(C)C(CO)N1C(=O)[C@@H]2[C@H]3C(=O)OCC=C[C@H]3OC23C=CCN(C(C)(C)C)C(=O)[C@@H]13 (stereo partly drawn) :: 1
19) C=C[C@@H](C)[C@@H](OC(=O)Nc1ccc(SC)cc1)c1ccc(OCCO)cc1 :: 1
20) CC(C)=CCCC(C)=CC(O)C1C=CC2C(=O)N(c3ccccc3)C(=O)C2N1Nc1ccccc1F (stereo not drawn) :: 0
21) CN1C(=O)[C@@H]2[C@@H](CC(COc3ccccc3)=C([C@H](O)CCc3ccccc3)[C@@H]2CO)C1=O :: 0
22) O=c1cccc(-c2ccc(F)cc2)o1 :: 1
23) [N-]=[N+]=NCc1ccccc1[C@@H]1OC(c2ccc(OCCCO)cc2)=N[C@]1(Cc1ccccc1)C(=O)NCCN1CCOCC1 :: 1

---

Tested on: XIP peptide (Xip251-270)
Experiment: small-molecule binders of XIP peptide, primary screen, biochemical, small-molecule microarray, fluorescence 635/667 nm, 0.5 µg/mL protein (AID 1183)
Conditions: small-molecule microarray binding, fluorescence 635 nm; higher = more signal
value-type: composite z-score

1) C=CCC(OC(C)=O)[C@@H]1[C@@H](N(Cc2ccc(-c3cccc(C(F)(F)F)c3)o2)C(=O)c2ccc(C)cc2)c2cc(OCCCO)ccc2N1C(=O)Cc1ccc(OC)cc1 (stereo partly drawn) :: -0.0047
2) NC(=O)N1C(=O)C2C(C1=O)C1C=C(CCCO)C2C(C2CC2)N1Cc1cccc(OC(F)(F)F)c1 (stereo not drawn) :: -0.341
3) [N-]=[N+]=NCc1ccccc1C[C@]1(C(=O)N2CCOCC2)COC(c2ccc(OCCCO)cc2)=N1 :: 0.711

---

Examples of compounds with documented z-score follow.
Experiment: modulators of HCV replicon luciferase signal, primary screen, HCV replication inhibitor project, Huh7 cells, luciferase reporter (AID 1109);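 note: huh7 hepatoma cells harbouring a luciferase neomycin HCV replicon reporter; luciferase luminescence as measure of HCV replicon replication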
Settings: 48 h, higher = more signal
value-type: z-score

1) C=CCC(OC(C)=O)[C@@H]1[C@@H](N(Cc2cccc3ccccc23)C(=O)Cc2ccc(F)cc2)c2cc(OCCCO)ccc2N1C(=O)c1ccc(-c2ccccc2)cc1 (some centres not stated) :: -1.09
2) COC(=O)[C@@]1(Cc2ccccc2)[C@H]2c3cc(C(=O)N(C)C)n(CCn4cc([N+](=O)[O-])nc4C)c3C[C@H]2CN1C(=O)c1ccccc1 :: -0.347
3) COc1cc(NN2C(C(O)c3ccc(I)cc3)C=CC3C(=O)N(c4ccccc4)C(=O)C32)cc(OC)c1OC (configuration not stated) :: -0.573
4) [N-]=[N+]=NCc1ccccc1[C@H]1OC(c2ccc(OCCCO)cc2)=N[C@@]1(CCS(=O)(=O)c1ccccc1)C(=O)NCc1ccccc1 :: -2.04
5) COC(=O)C1=CC(CCCO)=CC(C)N(Cc2cccc(OC(F)(F)F)c2)C=C1C(=O)OC (configuration not stated) :: -0.307
6) COc1ccc(C#Cc2ccc3c(c2)[C@]2(C(=O)N3)[C@H](C(=O)Nc3nc4ccccc4s3)[C@H]3C(=O)O[C@H](c4ccccc4)[C@H](c4ccccc4)N3[C@@H]2c2ccccc2OCCO)cc1 :: -1.67
7) Cc1ccc(C(C)CC(O)C2C=CC3C(=O)N(c4ccccc4)C(=O)C3N2Nc2ccc(C#N)cc2)o1 (configuration not stated) :: 0.0453

---

Examples of molecules with documented composite z-score follow.
Test system: PRMT1 (protein arginine N-methyltransferase 1)
Experiment: PRMT1 binders on small-molecule microarrays, primary screen, biochemical, small-molecule microarray, 635 nm fluorescence (AID 1088);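 note: binding of Prmt1 protein to compounds spotted on small-molecule microarray slides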
Conditions: small-molecule microarray binding, higher = more signal
value-type: composite z-score

1. COc1ccc([Si](C)(C)[C@H]2[C@H](CC(=O)N3Cc4ccccc4C[C@H]3CO)O[C@@]3(C(=O)N(Cc4ccc(N5C(=O)c6cccc7cccc5c67)cc4)c4ccccc43)[C@@H]2C)cc1 :: 1.56
2. CC(C)(C)OC(=O)CC[C@]12N=C(c3ccc(OCCCO)cc3)O[C@H]1c1ccccc1N(Cc1ccccc1)C2=O :: 1.54
3. NC(=O)[C@H]1[C@@H]2C(=O)O[C@@H](c3ccccc3)[C@@H](c3ccccc3)N2[C@@H](c2ccc(O)cc2)[C@]12C(=O)Nc1ccc(C#CC3=CCCCC3)cc12 :: 1.45
